Recorded Triple reuptake inhibition (Ratio %) SERT values for a group of compounds are listed next.
Molecular target: serotonin transporter (SERT) (Homo sapiens)
Construct: expressed in transfected cells; host or cells: HEK-293
Assay: Serotonin reuptake inhibition, [3H]-5-HT, HEK-293 cells transfected with 5-HT transporter cDNA
Type: cell-based
Conditions: compound 1 μM; [3H]-5-HT; relative to control without compound = 100%; lower value = more inhibition
Protocol: In order to evaluate the reuptake inhibitory effect of the compounds of the Examples according to the present invention on serotonin, norepinephrine and dopamine, the experiments below were performed, and the results are shown in Table 17. To evaluate the reuptake inhibition effect on dopamine, the dopamine transporter cDNA was transfected using the HEK-293 cell line, and then sub-seeded in a 24 well plate the next day. […]
The figure you give is taken to be in %; do not add the unit.

Illustrative cases are given below, each with its answer.
>  <COMPOUND>
COc1ccc(S(=O)(=O)NCCCN2CCC(Cc3ccccc3)CC2)cc1 [Example 14]

>  <READING_UNIT>
%

>  <NUMERIC_VALUE>
55.67

$$$$
>  <COMPOUND>
O=S(=O)(NCCCCN1CCC(Cc2ccccc2)CC1)c1ccc(-c2ccccc2)cc1 [Example 77]

>  <READING_UNIT>
%

>  <NUMERIC_VALUE>
40.45

$$$$
>  <COMPOUND>
O=S(=O)(NCCCN1CCC(c2ccccc2)CC1)c1ccc2ccccc2n1 [Example 65]

>  <READING_UNIT>
%

>  <NUMERIC_VALUE>
56.73

$$$$
>  <COMPOUND>
CCCCOc1ccc(S(=O)(=O)NCCCN2CCC(Cc3ccc(F)c(F)c3)CC2)cc1 [Example 21]

>  <READING_UNIT>
%

>  <NUMERIC_VALUE>
38.74

$$$$
>  <COMPOUND>
O=S(=O)(NCCN1CCC(c2ccccc2)CC1)c1ccc(-c2ccccc2)cc1 [Example 44]

>  <READING_UNIT>
%

>  <NUMERIC_VALUE>
15.55

$$$$
>  <COMPOUND>
O=S(=O)(NCCCN1CCC(Cc2ccccc2)CC1)c1ccc(OC(F)(F)F)cc1 [Example 34]

>  <READING_UNIT>
%

>  <NUMERIC_VALUE>
57.25

$$$$
>  <COMPOUND>
O=S(=O)(NCCN1CCN(c2ccc(Cl)cc2)CC1)c1ccc2ccccc2n1 [Example 53]

>  <READING_UNIT>
%

>  <NUMERIC_VALUE>
47.19

$$$$
>  <COMPOUND>
CCCCOc1ccc(S(=O)(=O)NCCCN2CCN(c3cccc(Cl)c3Cl)CC2)cc1 [Example 24]

>  <READING_UNIT>
%

>  <NUMERIC_VALUE>
60.27

$$$$

As a next step, examine the compound that follows.
q: Looking for the measured Triple reuptake inhibition (Ratio %) SERT of O=S(=O)(NCCCN1CCN(c2ccc(Cl)cc2)CC1)c1ccc2ccccc2c1 [Example 70] , can you help?
a: 45.16

* * *

target: serotonin transporter (SERT) (Homo sapiens); construct: expressed in transfected cells; host or cells: HEK-293; experiment: Serotonin reuptake inhibition, [3H]-5-HT, HEK-293 cells transfected with 5-HT transporter cDNA; format: cell-based; conditions: compound 1 μM; [3H]-5-HT; relative to control without compound = 100%; lower value = more inhibition
MEASUREMENT_TYPE: Triple reuptake inhibition (Ratio %) SERT
Quote the value and follow it with the unit of measurement.

>  <COMPOUND_STRUCTURE_STRING>
O=S(=O)(NCCN1CCC(c2ccccc2)CC1)c1cccc2ccccc12

>  <RESULT>
64.15%

$$$$
>  <COMPOUND_STRUCTURE_STRING>
O=S(=O)(NCCN1CCN(c2ccc(Cl)cc2)CC1)c1cccc2ccccc12

>  <RESULT>
47.19%

$$$$
>  <COMPOUND_STRUCTURE_STRING>
CCCCOc1ccc(S(=O)(=O)NCCCN2CCN(c3cccc(C(F)(F)F)c3)CC2)cc1

>  <RESULT>
50.98%

$$$$

q: Return reported Triple reuptake inhibition (Ratio %) SERT; argument: O=S(=O)(NCCCN1CCC(Cc2ccccc2)CC1)c1ccc(-c2ccc(Cl)cc2)cc1
a: 29.78%

* * *

target: serotonin transporter (SERT) (Homo sapiens, UniProt P31645); construct: expressed in transfected cells; host or cells: HEK-293; assay: Serotonin reuptake inhibition, [3H]-5-HT, HEK-293 cells transfected with 5-HT transporter cDNA; format: cell-based; conditions: compound 1 μM; [3H]-5-HT; relative to control without compound = 100%; lower value = more inhibition
Sequence (P31645 whole entry, species assumed): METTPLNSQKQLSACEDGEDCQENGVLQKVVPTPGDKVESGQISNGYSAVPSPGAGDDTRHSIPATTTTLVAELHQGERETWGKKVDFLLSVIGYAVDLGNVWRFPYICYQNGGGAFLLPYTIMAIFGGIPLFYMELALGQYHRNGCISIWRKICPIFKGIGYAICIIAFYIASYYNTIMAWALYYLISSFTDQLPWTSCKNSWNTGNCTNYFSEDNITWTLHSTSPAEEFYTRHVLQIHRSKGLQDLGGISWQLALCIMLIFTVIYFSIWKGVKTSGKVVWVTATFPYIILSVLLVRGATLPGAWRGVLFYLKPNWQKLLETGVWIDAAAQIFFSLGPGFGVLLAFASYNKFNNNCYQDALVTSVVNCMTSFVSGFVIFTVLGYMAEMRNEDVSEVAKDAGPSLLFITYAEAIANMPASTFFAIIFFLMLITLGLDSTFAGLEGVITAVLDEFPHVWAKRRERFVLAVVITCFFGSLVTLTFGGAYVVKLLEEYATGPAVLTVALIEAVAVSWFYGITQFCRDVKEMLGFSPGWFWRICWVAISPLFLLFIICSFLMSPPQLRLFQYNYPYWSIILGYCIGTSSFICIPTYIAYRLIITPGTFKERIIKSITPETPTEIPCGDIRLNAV
Could you label it YES if measured Triple reuptake inhibition (Ratio %) SERT is 50% or higher, and NO otherwise?

// known answers, use as guide
>  <COMPOUND_STRUCTURE_STRING>
CCCCOc1ccc(S(=O)(=O)NCCCN2CCC(c3cccc(Cl)c3Cl)CC2)cc1

>  <CLASS_NAME>
YES

$$$$
>  <COMPOUND_STRUCTURE_STRING>
CCCCOc1ccc(S(=O)(=O)NCCCN2CCC(c3c[nH]c4ccccc34)CC2)cc1

>  <CLASS_NAME>
NO

$$$$

q: Please indicate if the recorded Triple reuptake inhibition (Ratio %) SERT for O=S(=O)(NCCCN1CCN(c2ccc(Cl)cc2)CC1)c1ccc(-c2ccccc2)cc1 meets or exceeds 50%.
a: NO

q: For this molecule, is measured Triple reuptake inhibition (Ratio %) SERT 50% or higher? O=S(=O)(NCCN1CCC(Cc2ccccc2)CC1)c1cccc2ccccc12
a: NO

q: Please check the record O=S(=O)(NCCCN1CCC(Cc2ccccc2)CC1)c1cccc2ccccc12 and state if its Triple reuptake inhibition (Ratio %) SERT is at or above 50%.
a: NO

* * *

biological target: serotonin transporter (SERT) (Homo sapiens); construct: expressed in transfected cells; host or cells: HEK-293; assay: Serotonin reuptake inhibition, [3H]-5-HT, HEK-293 cells transfected with 5-HT transporter cDNA; assay type: cell-based; conditions: compound 1 μM; [3H]-5-HT; relative to control without compound = 100%; lower value = more inhibition
Overview of recorded Triple reuptake inhibition (Ratio %) SERT for various compounds
Value expressed in %; do not type the unit.

Please review the following examples before continuing.
>  <COMPOUND_STRUCTURE_STRING>
Cc1ccc(-c2ccc(S(=O)(=O)NCCCN3CCC(Cc4ccccc4)CC3)cc2)cc1

>  <TARGET_UNDER_TEST>
serotonin transporter (SERT) (Homo sapiens)

>  <NUMERIC_VALUE>
17.76

$$$$
>  <COMPOUND_STRUCTURE_STRING>
O=S(=O)(NCCCCN1CCC(CCCc2ccccc2)CC1)c1ccc(-c2ccccc2)cc1

>  <TARGET_UNDER_TEST>
serotonin transporter (SERT) (Homo sapiens)

>  <NUMERIC_VALUE>
21.60

$$$$
>  <COMPOUND_STRUCTURE_STRING>
O=S(=O)(NCCN1CCC(Cc2ccccc2)CC1)c1ccc(-c2ccccc2)cc1

>  <TARGET_UNDER_TEST>
serotonin transporter (SERT) (Homo sapiens)

>  <NUMERIC_VALUE>
33.23

$$$$

q: Query the reported Triple reuptake inhibition (Ratio %) SERT for serotonin transporter (SERT) (Homo sapiens); item: CCCCOc1ccc(S(=O)(=O)NCCCN2CCN(c3ccc(Cl)c(Cl)c3)CC2)cc1
a: 41.32

q: Query Triple reuptake inhibition (Ratio %) SERT on serotonin transporter (SERT) (Homo sapiens) for CCCCOc1ccc(S(=O)(=O)NCCCN2CCC(Cc3cccc(Cl)c3)CC2)cc1
a: 14.27

q: For serotonin transporter (SERT) (Homo sapiens), provide Triple reuptake inhibition (Ratio %) SERT of O=S(=O)(NCCN1CCC(Cc2ccccc2)CC1)c1ccc2ccccc2n1 please.
a: 64.15

q: Provide value of Triple reuptake inhibition (Ratio %) SERT for this record tested with serotonin transporter (SERT) (Homo sapiens): CCCCOc1ccc(S(=O)(=O)NCCCN2CCN(Cc3ccccc3)CC2)cc1
a: 76.16

q: Record lookup: for serotonin transporter (SERT) (Homo sapiens), what Triple reuptake inhibition (Ratio %) SERT belongs to COc1ccc(-c2ccc(S(=O)(=O)NCCCN3CCC(Cc4ccccc4)CC3)cc2)cc1 ?
a: 30.78

* * *

target: norepinephrine transporter (NET) (Homo sapiens, UniProt P23975); construct: expressed in transfected cells; host or cells: HEK-293; assay: Norepinephrine reuptake inhibition, [3H]-NE, HEK-293 cells transfected with NE transporter cDNA; format: cell-based; settings: compound 1 μM; [3H]-NE; relative to control without compound = 100%; lower value = more inhibition
Sequence (P23975 whole entry, species assumed): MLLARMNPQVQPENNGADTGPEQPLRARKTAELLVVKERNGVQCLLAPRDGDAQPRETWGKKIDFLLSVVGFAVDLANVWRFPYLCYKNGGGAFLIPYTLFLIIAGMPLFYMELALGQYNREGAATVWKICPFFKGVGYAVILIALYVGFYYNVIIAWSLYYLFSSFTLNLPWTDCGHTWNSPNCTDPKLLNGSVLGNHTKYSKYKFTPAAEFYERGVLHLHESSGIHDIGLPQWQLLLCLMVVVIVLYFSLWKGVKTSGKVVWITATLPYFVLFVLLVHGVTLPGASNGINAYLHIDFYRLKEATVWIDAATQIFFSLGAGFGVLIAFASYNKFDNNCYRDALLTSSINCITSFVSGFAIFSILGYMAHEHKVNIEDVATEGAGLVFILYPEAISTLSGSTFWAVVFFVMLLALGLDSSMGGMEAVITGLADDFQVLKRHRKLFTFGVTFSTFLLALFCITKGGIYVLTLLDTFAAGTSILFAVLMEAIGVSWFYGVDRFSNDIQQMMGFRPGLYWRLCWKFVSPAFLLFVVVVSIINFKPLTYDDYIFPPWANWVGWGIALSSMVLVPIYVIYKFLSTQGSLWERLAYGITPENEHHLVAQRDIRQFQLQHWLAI
MEASUREMENT_TYPE: Triple reuptake inhibition (Ratio %) NET
Report the figure in % without appending any unit label.

Consider the worked cases shown below.
>  <MOLECULE>
O=S(=O)(NCCN1CCC(c2ccccc2)CC1)c1ccc(-c2ccccc2)cc1 [Example 44]

>  <READING_UNIT>
%

>  <Triple reuptake inhibition (Ratio %) NET>
14.04

$$$$
>  <MOLECULE>
O=S(=O)(NCCN1CCC(c2ccccc2)CC1)c1ccc2ccccc2c1 [Example 42]

>  <READING_UNIT>
%

>  <Triple reuptake inhibition (Ratio %) NET>
34.97

$$$$
>  <MOLECULE>
CCCCOc1ccc(S(=O)(=O)NCCCN2CCC(c3ccc(Cl)c(Cl)c3)CC2)cc1 [Example 22]

>  <READING_UNIT>
%

>  <Triple reuptake inhibition (Ratio %) NET>
36.85

$$$$
>  <MOLECULE>
O=S(=O)(NCCCN1CCC(CCCc2ccccc2)CC1)c1ccc(-c2ccccc2)cc1 [Example 75]

>  <READING_UNIT>
%

>  <Triple reuptake inhibition (Ratio %) NET>
44.79

$$$$

q: Which measured Triple reuptake inhibition (Ratio %) NET value corresponds to CCCCOc1ccc(S(=O)(=O)NCCCN2CCC(Cc3ccc(OC)cc3)CC2)cc1 [Example 30] ?
a: 37.58

q: Item under review: O=S(=O)(NCCCN1CCC(Cc2ccccc2)CC1)c1ccc(-c2ccccc2)cc1 [Example 56] . Reported Triple reuptake inhibition (Ratio %) NET?
a: 68.65

q: I'd like to know its Triple reuptake inhibition (Ratio %) NET. The molecule in question is CCCCOc1ccc(S(=O)(=O)NCCCN2CCC(Cc3ccc(C)cc3)CC2)cc1 [Example 29]
a: 54.04

q: Can you look up the measured Triple reuptake inhibition (Ratio %) NET of O=S(=O)(NCCN1CCC(Cc2ccccc2)CC1)c1ccc(-c2ccccc2)cc1 [Example 40] for me?
a: 33.45

q: Need Triple reuptake inhibition (Ratio %) NET, item O=S(=O)(NCCN1CCC(Cc2ccccc2)CC1)c1ccc(F)cc1 [Example 2]
a: 61.32
